# Tested on: human lung cancer strain NCI-H441
# Format: cell-based
Where a SMILES comes first, the peptide text is derived from it. Bridges are numbered along the chain shown (N, C = ends). [ ]: non-standard residue; d: D form. The star is where a group is joined. hPhe(3-Cl-4-CF3) = N[C@@H](CCc1ccc(C(F)(F)F)c(Cl)c1)C(=O)O; NPrPhe(4-CF3) = CCCN[C@@H](Cc1ccc(C(F)(F)F)cc1)C(=O)O; NMeGly(cPent) = CN[C@H](C(=O)O)C1CCCC1; Pro(4,4-F2) = O=C(O)[C@@H]1CC(F)(F)CN1; Hyp = O=C(O)[C@@H]1C[C@@H](O)CN1; NMeD = CN[C@@H](CC(=O)O)C(=O)O; NMeL = CN[C@@H](CC(C)C)C(=O)O; Morpholide = C1CN(*)CCO1; Ac5c = NC1(C(=O)O)CCCC1; Aze = O=C(O)[C@@H]1CCN1; Ac4c = NC1(C(=O)O)CCC1; NEtG = CCNCC(=O)O; Sar = CNCC(=O)O
parameter: pIC50
Formally, pIC50 is defined as -log10 of the concentration c, with c in mol/L.

Worked cases, answers included:
Looking up CCCN1C(=O)[C@@H]2CCN2C(=O)CN(C)C(=O)[C@H]([C@@H](C)CC)NC(=O)[C@H](CC(C)C)N(C)C(=O)C[C@@H](C(=O)N2CCOCC2)NC(=O)[C@H](C2CCCC2)N(C)C(=O)C2(CCCC2)NC(=O)[C@@H]2CC(F)(F)CN2C(=O)[C@H](CCc2ccc(C(F)(F)F)c(Cl)c2)NC(=O)CN(C)C(=O)[C@@H]1Cc1ccc(C(F)(F)F)cc1 [PP0351] ([NMeL]I[Sar][Aze][NPrPhe(4-CF3)][Sar][hPhe(3-Cl-4-CF3)][Pro(4,4-F2)][Ac5c][NMeGly(cPent)]D-Morpholide; lactam N-11) , I found its pIC50 recorded as 7.41

Looking up CCCN1C(=O)CN(C)C(=O)CN(CC)C(=O)[C@H]([C@@H](C)CC)NC(=O)[C@H](CC(C)C)N(C)C(=O)C[C@@H](C(=O)N(C)C)N(C)C(=O)[C@H](C2CCCC2)N(C)C(=O)C2(CCCC2)NC(=O)[C@@H]2C[C@@H](OCC)CN2C(=O)[C@H](CCc2ccc(C(F)(F)F)c(Cl)c2)NC(=O)CN(C)C(=O)[C@@H]1Cc1ccc(C(F)(F)F)cc1 [PP0427] ([NMeL]I[NEtG][Sar][NPrPhe(4-CF3)][Sar][hPhe(3-Cl-4-CF3)][Hyp](Et)[Ac5c][NMeGly(cPent)][NMeD]-NMe2; lactam N-11) , I found its pIC50 recorded as 8.66

Looking up C#CC[C@H]1C(=O)N[C@@H]([C@@H](C)CC)C(=O)N(C)CC(=O)N(C)[C@H]2C/C=C\CCN(C2=O)[C@@H](Cc2ccc(C(F)(F)F)cc2)C(=O)N(C)CC(=O)N[C@@H](CCc2cc(F)c(C(F)(F)F)c(F)c2)C(=O)N2C[C@H](OCC)C[C@H]2C(=O)NC2(CC(F)(F)C2)C(=O)N(C)[C@@H](C2CCCC2)C(=O)N(C)[C@H](C(=O)N(C)CCC)CC(=O)N1C , I found its pIC50 recorded as 8.57

New cases:
Looking up CCO[C@@H]1C[C@H]2C(=O)N(C)C3(CCC3)C(=O)N(C)[C@@H](C3CCCC3)C(=O)N(C)[C@H](C(=O)N(C)C)CC(=O)N(C)[C@@H](C3CC3)C(=O)N[C@@H]([C@@H](C)CC)C(=O)N(C)CC(=O)N(C)[C@H]3C/C=C\CCN(C3=O)[C@@H](Cc3ccc(C)cc3)C(=O)N(C)CC(=O)N[C@@H](CCc3cc(F)c(C(F)(F)F)c(F)c3)C(=O)N2C1 , I found its pIC50 recorded as 8.46

Looking up CCCN(C)C(=O)[C@@H]1CC(=O)N(C)[C@@H](CC2CC2)C(=O)N[C@@H]([C@@H](C)CC)C(=O)N(C)CC(=O)N(C)[C@H]2C/C=C\CCN(C2=O)[C@@H](Cc2ccc(C(F)(F)F)cc2)C(=O)N(C)CC(=O)N[C@@H](CCc2cc(F)c(C(F)(F)F)c(F)c2)C(=O)N2C[C@H](F)C[C@H]2C(=O)NC2(CC(C)(C)C2)C(=O)N(C)[C@@H](C2CCCC2)C(=O)N1C , I found its pIC50 recorded as 8.51

Looking up CCC(CC)[C@H]1C(=O)N(C)[C@H](C(=O)N(C)C)CC(=O)N(C)[C@@H](COC)C(=O)N[C@@H]([C@@H](C)CC)C(=O)N(C)CC(=O)N(C)[C@H]2C/C=C\CCN(C2=O)[C@@H](Cc2ccc(C(F)(F)F)cc2)C(=O)N(C)CC(=O)N[C@@H](CCc2ccc(Cl)c(Cl)c2)C(=O)N2CCOC[C@H]2C(=O)NC2(CC(C)(C)C2)C(=O)N1C , I found its pIC50 recorded as 6.98

Looking up CCCN1C(=O)CN(C)C(=O)CN(CC)C(=O)[C@H]([C@@H](C)CC)NC(=O)[C@H](CC(C)C)N(C)C(=O)C[C@@H](C(=O)N2CCOCC2)NC(=O)[C@H](C2CCCC2)N(C)C(=O)C2(CCC2)NC(=O)[C@@H]2CCCN2C(=O)[C@H](CCc2ccc(C(F)(F)F)c(Cl)c2)NC(=O)CN(C)C(=O)[C@@H]1Cc1ccc(C(F)(F)F)cc1 [PP0332] ([NMeL]I[NEtG][Sar][NPrPhe(4-CF3)][Sar][hPhe(3-Cl-4-CF3)]P[Ac4c][NMeGly(cPent)]D-Morpholide; lactam N-11) , I found its pIC50 recorded as 6.78

Looking up CC[C@H](C)[C@@H]1NC(=O)[C@H](CC(C)C)NC(=O)C[C@@H](C(=O)N2CCOCC2)N(C)C(=O)[C@H](C2CCCC2)N(C)C(=O)C2(CCCC2)NC(=O)[C@@H]2CCCN2C(=O)[C@H](CCc2cc(F)c(C(F)(F)F)c(F)c2)NC(=O)CN(C)C(=O)[C@H](Cc2ccc(C(F)(F)F)cc2)N2CCCCC[C@@H](C2=O)N(C)C(=O)CN(C)C1=O , I found its pIC50 recorded as 6.34

Looking up CC[C@H](C)[C@@H]1NC(=O)[C@H](CC(C)C)N(C)C(=O)C[C@@H](C(=O)N2CCOCC2)N(C)C(=O)[C@H](C2CCCC2)N(C)C(=O)C2(CCC2)NC(=O)[C@@H]2[C@@H](O)CCN2C(=O)[C@H](CCc2cc(F)c(C(F)(F)F)c(F)c2)NC(=O)CN(C)C(=O)[C@H](Cc2ccc(C(F)(F)F)cc2)N2CCCC[C@@H](C2=O)N(C)C(=O)CN(C)C1=O , I found its pIC50 recorded as 6.87

Looking up CCO[C@@H]1C[C@H]2C(=O)NC3(CCC3)C(=O)N(C)[C@@H](C3CCCC3)C(=O)N(C)[C@H](C)CC(=O)N(C)[C@@H](CC(C)C)C(=O)N[C@@H]([C@@H](C)CC)C(=O)N(C)CC(=O)N(C)[C@H]3C/C=C\CCN(C3=O)[C@@H](Cc3ccc(F)cc3)C(=O)N(C)CC(=O)N[C@@H](CCc3cc(F)c(C(F)(F)F)c(F)c3)C(=O)N2C1 , I found its pIC50 recorded as 6.85

---

# Tested on: human lung cancer strain NCI-H441
# Type: cell-based
Where a SMILES comes first, the peptide text is derived from it. Bridges are numbered along the chain shown (N, C = ends). [ ]: non-standard residue; d: D form. The star is where a group is joined. hPhe(3-Cl-4-CF3) = N[C@@H](CCc1ccc(C(F)(F)F)c(Cl)c1)C(=O)O; NPrPhe(4-CF3) = CCCN[C@@H](Cc1ccc(C(F)(F)F)cc1)C(=O)O; 3Oxa8azabicyclo(3.2.1)octane = C1CC2COCC1N2*; NMeGly(cPent) = CN[C@H](C(=O)O)C1CCCC1; NMeD = CN[C@@H](CC(=O)O)C(=O)O; NMeL = CN[C@@H](CC(C)C)C(=O)O; Ac5c = NC1(C(=O)O)CCCC1; Sar = CNCC(=O)O
parameter: pIC50
Formally, pIC50 is defined as -log10 of the concentration c, with c in mol/L.

Looking up CCO[C@@H]1C[C@H]2C(=O)NC3(CCC3)C(=O)N(C)[C@@H](C3CCCC3)C(=O)N(C)[C@H](C(=O)N(C)C)CC(=O)N(C)[C@@H](CC)C(=O)N[C@@H]([C@@H](C)CC)C(=O)N3CC[C@H]3C(=O)N(C)[C@H]3C[C@@H](C)CCN(C3=O)[C@@H](Cc3ccc(C(F)(F)F)cc3)C(=O)N(C)CC(=O)N[C@@H](CCc3cc(F)c(C(F)(F)F)c(F)c3)C(=O)N2C1 , I found its pIC50 recorded as 7.85

Looking up CCCN1C(=O)CN(C)C(=O)CN(C)C(=O)[C@H]([C@@H](C)CC)NC(=O)[C@H](CC(C)C)N(C)C(=O)C[C@@H](C(=O)N2C3CCC2COC3)N(C)C(=O)[C@H](C2CCCC2)N(C)C(=O)C2(CCCC2)NC(=O)[C@@H]2CCCN2C(=O)[C@H](CCc2ccc(C(F)(F)F)c(Cl)c2)NC(=O)CN(C)C(=O)[C@@H]1Cc1ccc(C(F)(F)F)cc1 [PP0173] ([NMeL]I[Sar][Sar][NPrPhe(4-CF3)][Sar][hPhe(3-Cl-4-CF3)]P[Ac5c][NMeGly(cPent)][NMeD]-{3Oxa8azabicyclo(3.2.1)octane}; lactam N-11) , I found its pIC50 recorded as 7.94

Turning now to a further molecule:
Looking up CCO[C@@H]1C[C@H]2C(=O)N(C)C3(CCCC3)C(=O)N(C)[C@@H](C3CCCC3)C(=O)N(C)[C@H](C(=O)N(C)C)CC(=O)N(C)[C@@H](CC)C(=O)N[C@@H]([C@@H](C)CC)C(=O)N(C)CC(=O)N(C)[C@H]3C/C=C\CCN(C3=O)[C@@H](Cc3ccc(C)cc3)C(=O)N(C)CC(=O)N[C@@H](CCc3cc(F)c(C(F)(F)F)c(F)c3)C(=O)N2C1 , I found its pIC50 recorded as 8.40
